- assay.system: human plasma kallikrein (Homo sapiens, UniProt P03952)
- Sequence (P03952 391-638 limits assumed): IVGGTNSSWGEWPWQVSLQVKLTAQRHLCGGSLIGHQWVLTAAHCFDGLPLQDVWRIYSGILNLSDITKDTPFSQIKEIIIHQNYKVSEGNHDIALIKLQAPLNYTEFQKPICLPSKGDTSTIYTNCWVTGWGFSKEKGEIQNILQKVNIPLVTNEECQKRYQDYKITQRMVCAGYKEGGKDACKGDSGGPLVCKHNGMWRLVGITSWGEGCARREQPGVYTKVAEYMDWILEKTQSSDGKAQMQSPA
- Sequence (P03952 20-390 partner limits assumed): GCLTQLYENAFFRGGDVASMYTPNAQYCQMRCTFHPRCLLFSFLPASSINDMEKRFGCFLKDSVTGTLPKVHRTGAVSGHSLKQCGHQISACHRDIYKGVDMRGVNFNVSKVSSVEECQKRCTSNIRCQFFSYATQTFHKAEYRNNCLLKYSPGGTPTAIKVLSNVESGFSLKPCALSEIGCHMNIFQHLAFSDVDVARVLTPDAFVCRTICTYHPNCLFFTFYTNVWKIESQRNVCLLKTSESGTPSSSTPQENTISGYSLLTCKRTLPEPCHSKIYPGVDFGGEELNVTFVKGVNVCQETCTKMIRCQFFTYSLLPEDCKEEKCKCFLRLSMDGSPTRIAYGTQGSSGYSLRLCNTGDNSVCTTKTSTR
- experiment.summary: Determination of the plasma kallikrein activity (fluorogenic peptide substrate)
- test.conditions: plasma kallikrein from Kordia 0.6 nM; substrate H-Pro-Phe-Arg-AMC; 30 min at 22° C.
- Experimental: To determine the plasma kallikrein inhibition of the substances according to the invention, a biochemical test system is used which utilizes the reaction of a peptidic plasma kallikrein substrate to determine the enzymatic activity of human plasma kallikrein. Here, plasma kallikrein cleaves from the peptic plasma kallikrein substrate the C-terminal aminomethylcoumarin (AMC), the fluorescence of which is measured. The determinations are carried out in microtitre plates. […]
pIC50: −log10 of the molar value.
assay.metric: pIC50

[1] COc1cn(C(CCOC2(C)CCC2)C(=O)Nc2ccc(C(=O)O)cc2)c(=O)cc1-c1cc(Cl)ccc1C#N (racemic) [Example 9]
[2] COc1cn([C@@H](CCOC2(C)CCC2)C(=O)Nc2ccc(C(=O)O)cc2)c(=O)cc1-c1cc(Cl)ccc1C#N (single isomer, unassigned; enantiomer 2) [Example 10]
[3] COc1cn(C(CCOC2(C)CCC2)C(=O)Nc2ccc(C(=O)O)cc2)c(=O)cc1-c1cc(Cl)ccc1OC(F)F (racemic) [Example 11]
[4] COc1cn([C@@H](CCOC2CCC2)C(=O)Nc2ccc(C(=O)O)cc2)c(=O)cc1-c1cc(Cl)ccc1C#N (single isomer, unassigned; enantiomer 2) [Example 4]
Problem: Hello, I need these entries ordered by pIC50, highest reading first. Thanks! I would appreciate it if you listed the labels in the requested order.
Solution: 4, 2, 1, 3
(4: 8.85, 2: 8.62, 1: 8.19, 3: 7.35)

###

- assay.system: UniProt P03951
assay.metric: IC50 (nM)

>  <compound>
COc1cn(C(CCOC(C)C)C(=O)Nc2ccc(C(=O)O)cc2)c(=O)cc1-c1cc(Cl)ccc1C#N (racemic) [Example 1]

>  <assay.metric>
IC50

>  <scale.unit>
nM

>  <observed.measurement>
1.2

$$$$

[A] COc1cn(C(CCOC2(C)CCC2)C(=O)Nc2ccc(C(=O)O)cc2)c(=O)cc1-c1cc(Cl)ccc1C#N (racemic) [Example 9]
[B] COc1cn([C@@H](CCOC2CCC2)C(=O)Nc2ccc(C(=O)O)cc2)c(=O)cc1-c1cc(Cl)ccc1C#N (single isomer, unassigned; enantiomer 2) [Example 4]
Problem: Consider entries A and B . Which has the numerically lower IC50? Select an item and report its label.
Solution: B
(B: 0.4 nM, A: 1 nM)

[1] COc1cn([C@@H](CCOC(C)C)C(=O)Nc2ccc(C(=O)O)cc2)c(=O)cc1-c1cc(Cl)ccc1C#N (single isomer, unassigned; enantiomer 2) [Example 2]
[2] COc1cn(C(CCOC2(C)CCC2)C(=O)Nc2ccc(C(=O)O)cc2)c(=O)cc1-c1cc(Cl)ccc1OC(F)F (racemic) [Example 11]
Problem: Which has the higher IC50, 1 or 2 ? Select an item and report its label.
Solution: 2
(2: 2.2 nM, 1: 0.9 nM)

###

pIC50: −log10 of the molar value.
Record: pIC50 reported on human factor XIa (Homo sapiens, UniProt P03951).
Sequence (P03951 388-625 limits assumed): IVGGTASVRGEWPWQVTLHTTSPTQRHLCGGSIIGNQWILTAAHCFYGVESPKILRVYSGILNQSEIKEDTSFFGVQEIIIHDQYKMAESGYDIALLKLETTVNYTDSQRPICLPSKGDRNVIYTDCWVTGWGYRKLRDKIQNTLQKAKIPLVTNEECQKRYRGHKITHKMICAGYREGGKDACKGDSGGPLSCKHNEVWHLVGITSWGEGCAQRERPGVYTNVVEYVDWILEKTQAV
Sequence (P03951 19-387 partner limits assumed): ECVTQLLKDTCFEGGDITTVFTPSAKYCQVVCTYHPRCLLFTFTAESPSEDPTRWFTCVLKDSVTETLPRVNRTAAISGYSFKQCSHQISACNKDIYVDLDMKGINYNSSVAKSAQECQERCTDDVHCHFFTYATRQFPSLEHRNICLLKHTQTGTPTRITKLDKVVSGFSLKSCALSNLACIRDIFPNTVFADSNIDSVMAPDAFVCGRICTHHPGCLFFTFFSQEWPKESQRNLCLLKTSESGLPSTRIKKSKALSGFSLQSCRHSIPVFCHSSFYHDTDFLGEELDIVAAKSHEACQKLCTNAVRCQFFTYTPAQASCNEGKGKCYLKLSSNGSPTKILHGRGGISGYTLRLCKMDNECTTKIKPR
assay.metric: pIC50

[A] COc1cn([C@@H](CCOC2(C)CCC2)C(=O)Nc2ccc(C(=O)O)cc2)c(=O)cc1-c1cc(Cl)ccc1C#N (single isomer, unassigned; enantiomer 2)
[B] COc1cn([C@@H](CCOC2(C)CCC2)C(=O)Nc2ccc(C(=O)O)cc2)c(=O)cc1-c1cc(Cl)ccc1OC(F)F (single isomer, unassigned; enantiomer 2)
Problem: Consider entries A and B . Which has the numerically lower pIC50? Select an item and report its label.
Solution: B
(B: 8.82, A: 9.40)

src = patent US20190119213A1
